These entries and their values trace back to the supplement of paper PMC10567573.

B1: INTS3 (parent)
chain: FHPIKETVVEEPVDITPYLDQLDE

Variants of: B1
Measurement Notes: protein stability index of a GFP-peptide fusion (GPS, HEK-293T) (PSI 1-6); higher = more stable;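 also: lentivirally expressed fusions sorted by FACS into six bins by GFP to DsRed ratio, PSI derived from sequencing read proportions per bin multiplied by bin number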
Condition Details: c terminus: a fixed tail appended
Reported Endpoint: protein stability index
Number only, no unit.

> print(dat)
            macromolecule.sequence        reported.endpoint  reported.value
1  FHPIKETVVEEPVAITPYLDQLDE [D14A]  protein stability index            3.05
2  FHPIKETVVEEPVDHTPYLDQLDE [I15H]  protein stability index            3.03
3  FHPIKETVVEEPVDITKYLDQLDE [P17K]  protein stability index            2.88
4   FHKIKETVVEEPVDITPYLDQLDE [P3K]  protein stability index            4.82

Consider now this further variant.
Which protein stability index value is on record for PHPIKETVVEEPVDITPYLDQLDE [F1P] ?
5.74
